tested on: DU-145 prostate; experiment: NCI-60 one-dose screen, 48 h (100 = growth as untreated, 0 = no growth, -100 = all killed); conditions: 10 µM unless noted
About 83,000 compounds went through this panel and 20% of them were active in at least one assay; those are over-represented in the sample as a whole.
measured property: growth (%)
Numeric answer only, unit % assumed.

Cc1ccc(/C(N)=N/C(N)=N/c2nc3ccccc3s2)cc1 :: 96.5

Form: compound = COC(=O)c1ccc(NC2=C(Cl)C(=O)C(C)=C(C)C2=O)cc1 ; growth = 85.3

// recorded growth for Brc1cc(-c2cc(-c3ccc4c(c3)OC=CO4)[nH]n2)cs1 : 95.9

growth in this record for COC(=O)CCCNCCCn1ccc2cc(NCc3cccc(-c4ccccc4)c3C)ccc21 : 86.2

Looking up Oc1[nH]c2ccc(Cl)cc2c1N=Nc1nc(N=Nc2c(O)[nH]c3ccc(Cl)cc23)nc(N2CCCCC2)n1 , I see its growth listed as 68

Value of measured growth for the entry CCCCCC[n+]1ccc(SCC(=O)n2ccc3ccccc32)c2ccccc21 : 94.1

Memo: Cn1cc(-c2cc3ncnc(Nc4ccc(CC(=O)Nc5nc(C(C)(C)C)cs5)cc4)c3s2)cn1 , reported growth: 38

The compound identified as Cc1ccc2c(n1)C(=O)C(Cl)=C(Nc1ccc(C#N)cc1)C2=O registered its growth at 112

* * *

Measured growth values are reported for all entries that follow.
tested on: MCF7 breast; assay: NCI-60 one-dose screen, 48 h (100 = growth as untreated, 0 = no growth, -100 = all killed); details: 10 µM unless noted
Compounds without any hit were thinned out: in the full panel of roughly 83,000, 20% have a hit. Calls of active or inactive are those of the source. Rule for the calls: active = growth percent below 10; inactive = the rest.

CC(=O)N(O)CCCCCNC(=O)CCC(=O)N(O)CCCCCNC(=O)CCC(=O)N(O)CCCCCN(CCCCCCCCCC[P+](c1ccccc1)(c1ccccc1)c1ccccc1)CCCCCCCCCC[P+](c1ccccc1)(c1ccccc1)c1ccccc1 :: 5.05% (active)

Result for CCc1cc(O)ccc1Nc1cc(-c2ccc(-n3cccn3)cc2)[nH]n1 , tested on MCF7 breast, growth: 34.3% (inactive)

Entry O=C(CSc1cc[n+](CCCCO)c2ccccc12)n1ccc2ccccc21 : growth on MCF7 breast = 94.6% (inactive)

Form field, growth with MCF7 breast, item N#Cc1nc(-c2ccc(Cl)cc2)oc1N1CCC(S(=O)(=O)N2CCOCC2)CC1 : 94.3% (inactive)

growth of Brc1cc(-c2cc(-c3ccc4c(c3)OCCO4)[nH]n2)cs1 , assay on MCF7 breast, is 14.7% (inactive)

Entry C#CCOc1ccccc1/C=N/Nc1nc(-c2ccc(Cl)cc2)cs1 under MCF7 breast had growth of 77.5% (inactive)

* * *

test system: MOLT-4 leukemia; test: NCI-60 one-dose screen, 48 h (100 = growth as untreated, 0 = no growth, -100 = all killed); details: 10 µM unless noted
Compounds without any hit were thinned out: in the full panel of roughly 83,000, 20% have a hit.
measured property: growth (%)
Field format: number, assumed %, no unit text.

CCCCSC1=C(Cl)CN(c2ccccc2)C1=O :: 105
CCCCCCOC(=O)c1cc(-c2ccc(F)cc2)nc2ccccc12 :: 97.2
O=C(/C=C/C=C/c1csc(Br)n1)NO :: 75.3
NC(N)=NS(=O)(=O)c1ccc(N=Nc2c(N)nn(-c3ccc([N+](=O)[O-])cc3[N+](=O)[O-])c2N)cc1 :: 99.4
N#C/C(=N\Nc1ccc(F)cc1)C(=O)Nc1cc(-c2ccccc2)nn1-c1ccccc1 :: 21.9

Noted for CC1CCN(CC(=O)Nn2c(COc3ccccc3)nc3ccccc3c2=O)CC1 : its growth reads 88.1

* * *

tested on: EKVX NSCLC; assay: NCI-60 one-dose screen, 48 h (100 = growth as untreated, 0 = no growth, -100 = all killed); details: 10 µM unless noted
Compounds without any hit were thinned out: in the full panel of roughly 83,000, 20% have a hit.
This section presents compounds with their documented growth values.
Respond numerically; units are % and should not be typed.

Some compounds with known growth results, for comparison:
CC1=C(C)C(=O)C(Nc2ccc3c(c2)OCCO3)=C(Br)C1=O :: 73.7
Fc1ccc(-c2cn3c(-c4c[nH]c5ccc(Br)cc45)csc3n2)cc1 :: 64.9
NC1C2CCC1CN(c1cnc(C(=O)Nc3cc(F)cc4cccnc34)cn1)C2 (configuration not stated) :: 71.2
CC[C@]12C=CCN3CC[C@@]4(c5ccc(OC)cc5N(C)[C@H]4[C@@](O)(C(=O)OC)[C@@H]1OC(=O)CCN1CCc4ccccc4C1)[C@@H]32 :: 88.6
COc1ccc2[nH]cc(-c3nn4cc(-c5ccncc5)nc4s3)c2c1 :: 55.4

Entry CC1=C(SCC(=O)OCCCCCC(C)C)C(=O)c2ccccc2C1=O ; growth = 82.5

Reported growth for COc1ccc(Cn2cc(C#N)c(N)c2C(C)=O)cc1 was 104

Note to self: growth recorded for CCN(CC)S(=O)(=O)c1ccc(-c2nc(C(Cl)Cl)nc3cc(-c4ccc(F)cc4)nn23)cc1 was 32

growth reading for CC(=O)N(O)CCCCCNC(=O)CCC(=O)N(O)CCCCCNC(=O)CCC(=O)N(O)CCCCCN(CCCCCCCCCC[P+](c1ccccc1)(c1ccccc1)c1ccccc1)CCCCCCCCCC[P+](c1ccccc1)(c1ccccc1)c1ccccc1 : 5.96

Sure, the documented growth for CNC(=O)c1cc(-c2ccc(NC(=S)Nc3cccc(C(F)(F)F)c3)cc2)nc2cccnc12 is 98.1

Input Cc1cc(Br)ccc1-n1cc(C#N)c(N)c1C(=O)c1ccc(Br)cc1 . Output growth: 97.8

Data point: Cc1ccc2c(n1)C(=O)C(Cl)=C(Nc1cccc(C)c1C)C2=O ; growth = 31.2

Item: CC(Nc1ncnc2ccc(-c3cnc4cnccn34)cc12)c1ccccc1 (configuration not stated) | growth: 30.4

Lab note: measured growth of C1=CC(c2nn3c(-c4ccccc4)nnc3s2)=Cc2ccccc2O1 was 88.5

Kindly note the recorded growth for Cc1ccccc1Nc1nc(SC(C)C)nc(-c2ccccc2)c1C#N , which is 73.2

* * *

growth values, listed per item
test system: KM12 colon; experiment: NCI-60 one-dose screen, 48 h (100 = growth as untreated, 0 = no growth, -100 = all killed); settings: 10 µM unless noted
This is part of a sample that, as a whole, favours compounds with a hit. Of some 83,000 tested, about 20% had one in any assay.
Field format: number, assumed %, no unit text.

CCCc1cc2cc(-n3nc(CC)c4c3CC(C)(C)CC4=O)cc(NC3CCC(O)CC3)c2c(=O)[nH]1 (stereo unspecified) :: 15.4
Cc1[nH]c(C(=O)Nc2ccc(C(=O)NCC3CCNCC3)cc2OC(C)C)c(Cl)c1Cl :: 56
CN(C)S(=O)(=O)c1ccc(-c2nc(C(Cl)Cl)nc3cc(-c4ccccc4)nn23)cc1 :: 74
CC(=C(c1ccc(OCCN(C)C)cc1)c1ccc(OCCN(C)C)cc1)c1ccc(Cl)cc1 :: -65.2
CC1=C(C)C(=O)C(Nc2ccc3c(c2)OCO3)=C(Br)C1=O :: 97.4
CC[C@]12CC(C(=O)OC)=C3Nc4ccccc4[C@@]34CCN(C14)[C@@H]1c3cc4c(cc3O[C@@H]1[C@H]2O)NC1=C(C(=O)OC)C[C@@]2(CC)C3N(CC[C@@]143)C[C@H]1O[C@H]12 (stereo partly specified) :: 13.4
COc1ccc([C@@H]2C(=O)N(c3cc(OC)c(OC)c(OC)c3)[C@H]2c2ccc(OC)c(O)c2)cc1 :: 10.7
Cc1ccc(C(=O)CSc2nc3ccccc3c(=O)n2C)cc1 :: 86.7
COC(=O)c1cccc(NC2=C(Cl)C(=O)C(C)=C(C)C2=O)c1 :: 49.2
O=C(CCCCCCNC(=O)C(O)(O)C(F)(F)F)Nc1nc2ccccc2s1 :: 7.52

Please find the next compound below.
For reference, reported growth for CCC1=Cc2c(OC)cccc2OC12C=Cc1c(OC)cccc1O2 (stereo unspecified) stands at 12.4

* * *

Entries and their growth
system: NCI-H226 lung; test: NCI-60 one-dose screen, 48 h (100 = growth as untreated, 0 = no growth, -100 = all killed); conditions: 10 µM unless noted
About 83,000 compounds went through this panel and 20% of them were active in at least one assay; those are over-represented in the sample as a whole.
Could you give me the number in %? Just the number is fine.

O=C(NCCNc1cc(-c2cn(-c3ccccc3)nc2-c2cccc(O)c2)ccn1)Nc1cc(C(F)(F)F)cc(C(F)(F)F)c1 :: 85
NNc1nnc2nc(Nc3ccccc3)nc(Nc3ccc(S(N)(=O)=O)cc3)n12 :: 105

Now look at this entry.
Value of measured growth for the entry Nn1c(=O)n(-c2cccc(C(F)(F)F)c2)c(=O)c2cc(-c3ccc(F)cc3F)ccc21 : 16.5

* * *

Tested on: PC-3 prostate
Test: NCI-60 one-dose screen, 48 h (100 = growth as untreated, 0 = no growth, -100 = all killed)
Conditions: 10 µM unless noted
Protocol: Growth inhibition of the PC-3 human tumor cell line is measured as a screen for anti-cancer activity. Cells are grown in 96 well plates and exposed to the test compound for 48 hours. Compounds are tested at a single concentration, which is 10^-5 M for most compounds. The reported endpoint is percent growth (GI% or GIPRCNT), where numbers from 0 - 100% represent growth inhibition, and numbers from -100% - 0 represent cell death. For example, a value of 40 represents 60% growth inhibition. […]
The panel holds about 83,000 compounds, 20% with a hit somewhere; the sample as a whole holds those more often.
Rule: growth under 60% gives NOT MET, otherwise MET.

O=C(CSc1nc2ccccc2c(=O)n1-c1ccc(S(=O)(=O)Nc2ccc(Cl)nn2)cc1)Nc1ccc(S(=O)(=O)Nc2ccc(Cl)nn2)cc1 :: MET
O=C(CSc1cc[n+](CCCCO)c2ccccc12)n1ccc2ccccc21 :: MET
CCCCN1C(=O)/C(=c2\sc3n(c2=O)C2C(NN=3)N(CC)C(=O)N2CC)c2cc(C)ccc21 (stereo not given) :: MET

Prompt: Does the compound COc1ccc(/C=N\NC(=O)c2cnn(CC(O)c3ccccc3)c2N)cc1OCc1ccc(Cl)cc1 (stereo not given) have recorded growth that is 60% or more?
Response: MET

Prompt: Check if growth >= 60% (inclusive). Item: Cc1ccc(NC2=C(Cl)C(=O)c3nc(C)ccc3C2=O)c(C)c1
Response: NOT MET

Prompt: # bool: growth of O=C(Nc1cc(C(F)(F)F)cc(C(F)(F)F)c1)Nc1ccc2oc(=O)ccc2c1 >= 60%
Response: NOT MET

Prompt: Please indicate if the recorded growth for O=C(CSc1nnc(-c2ccc(Cl)cc2)n1-c1ccccc1)Nc1ccccc1Cl meets or exceeds 60%.
Response: MET

Prompt: Test whether the compound Cc1ccc(N2CCN(C3=C(Cl)C(=O)c4ncccc4C3=O)CC2)cc1 records growth of 60% or higher.
Response: MET

Prompt: Could you verify whether the entry COc1cccc2c1[C@H](OC)[C@]13O[C@@]1(C2=O)[C@H](O)[C@H](C)[C@@](O)(C(=O)[C@@H]1O[C@H]1C)[C@@H]3O shows growth of no less than 60%?
Response: NOT MET

Prompt: Item OCC(Nc1ncnc2ccc(-c3cnc4cnccn34)cc12)c1ccccc1 (stereo not given) with growth of 60% or above?
Response: MET
